The measurements presented in this section are drawn from ChEMBL document CHEMBL2086238.

Tested target: Phosphatidylinositol 4,5-bisphosphate 3-kinase catalytic subunit alpha isoform (Homo sapiens, UniProt P42336, E545K)
Sequence (P42336 whole entry E545K, canonical isoform): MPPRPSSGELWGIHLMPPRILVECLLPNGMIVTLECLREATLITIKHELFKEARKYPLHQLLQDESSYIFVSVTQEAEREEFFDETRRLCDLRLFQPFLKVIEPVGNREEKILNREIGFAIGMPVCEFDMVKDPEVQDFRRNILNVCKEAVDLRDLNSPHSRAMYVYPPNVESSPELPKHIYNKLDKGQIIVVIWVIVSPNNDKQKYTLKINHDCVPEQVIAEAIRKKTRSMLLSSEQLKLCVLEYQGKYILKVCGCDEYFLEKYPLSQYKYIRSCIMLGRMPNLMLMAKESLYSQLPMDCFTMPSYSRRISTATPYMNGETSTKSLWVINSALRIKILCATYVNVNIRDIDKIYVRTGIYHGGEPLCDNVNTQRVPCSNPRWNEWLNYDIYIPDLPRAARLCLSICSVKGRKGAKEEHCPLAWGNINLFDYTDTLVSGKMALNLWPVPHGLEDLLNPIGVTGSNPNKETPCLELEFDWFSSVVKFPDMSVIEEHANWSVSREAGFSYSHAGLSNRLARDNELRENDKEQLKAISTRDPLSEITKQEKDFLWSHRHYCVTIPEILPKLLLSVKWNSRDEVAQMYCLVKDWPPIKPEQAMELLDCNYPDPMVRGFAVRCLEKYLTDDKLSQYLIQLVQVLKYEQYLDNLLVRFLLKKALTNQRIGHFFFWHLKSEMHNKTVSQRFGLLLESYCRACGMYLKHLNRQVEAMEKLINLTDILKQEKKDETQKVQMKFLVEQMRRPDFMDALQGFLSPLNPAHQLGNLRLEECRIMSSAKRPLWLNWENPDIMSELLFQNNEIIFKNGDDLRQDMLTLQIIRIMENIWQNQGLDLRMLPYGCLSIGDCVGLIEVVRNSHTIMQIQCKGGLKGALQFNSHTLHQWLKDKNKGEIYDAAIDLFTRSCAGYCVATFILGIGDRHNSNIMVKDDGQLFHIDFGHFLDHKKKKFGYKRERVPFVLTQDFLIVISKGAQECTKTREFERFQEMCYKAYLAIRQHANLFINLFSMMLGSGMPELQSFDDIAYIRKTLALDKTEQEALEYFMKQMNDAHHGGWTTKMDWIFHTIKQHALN
Method summary: Inhibition of human PI3Kalpha E545K mutant by ADP accumulation based HTRF assay
Stated conditions: read-out: Ki(app)
Quantity name: pKi
On this scale, pKi is minus log10 of a concentration expressed in M (mol/L).

Q) Request the reported pKi associated with `CS(=O)(=O)N1CCN(Cc2cn3c(Cl)c(-c4cnc(N)nc4)nc(N4CCOCC4)c3n2)CC1`
A) 8.76

###

Tested target: PI3-kinase p110-alpha/p85-alpha (Homo sapiens)
Method summary: Inhibition of human PI3Kalpha (p110alpha/p85alpha) by ADP accumulation based HTRF assay
Quantity name: IC50 (µM)

CS(=O)(=O)N1CCN(Cc2cn3c(Cl)c(-c4cnc5[nH]ccc5c4)nc(N4CCOCC4)c3n2)CC1 0.166
CCS(=O)(=O)N1CCN(Cc2cn3cc(-c4cnc(N)nc4)nc(N4CCOCC4)c3n2)CC1 0.0133
CNc1ncc(-c2nc(N3CCOCC3)c3nc(CN4CCN(S(C)(=O)=O)CC4)cn3c2Cl)cn1 0.0114

(I) CS(=O)(=O)N1CCN(Cc2cn3cc(-c4cnc(N)c(C#N)c4)nc(N4CCOCC4)c3n2)CC1
(II) Cc1nc(N)ncc1-c1nc(N2CCOCC2)c2nc(CN3CCN(S(C)(=O)=O)CC3)cn2c1Cl
(III) COc1ncc(-c2cn3cc(CN4CCN(S(C)(=O)=O)CC4)nc3c(N3CCOCC3)n2)cn1
Q) Order the records so the highest IC50 appears first and the lowest last. Reply: labels, ordered per the request.
A) I, III, II
(I: 1.01 µM, III: 0.16 µM, II: 0.013 µM)

(P) Cc1c(CN2CCN(S(C)(=O)=O)CC2)nc2c(N3CCOCC3)nc(-c3cnc(N)nc3)cn12
(Q) COc1cncc(-c2cn3cc(CN4CCN(S(C)(=O)=O)CC4)nc3c(N3CCOCC3)n2)c1
Q) Which of the two items, P and Q , has the greater recorded IC50? Lab log: write the label of the selected item as the result.
A) Q
(Q: 1.11 µM, P: 0.01 µM)

###

Attribute: inhibition
Tested target: Tyrosine-protein kinase JAK2 (Homo sapiens)
Method summary: Inhibition of JAK2 at 5 uM

Q) // inhibition lookup, key: `CS(=O)(=O)N1CCN(Cc2nc3c(N4CCOCC4)nc(-c4cnc(N)nc4)cn3c2Br)CC1`
A) < 30%

Q) # lookup: inhibition of `CS(=O)(=O)N1CCN(Cc2cn3cc(-c4cnc(N)nc4)nc(N4CCOCC4)c3n2)CC1`
A) < 30%

###

Tested target: PI3-kinase p110-alpha/p85-alpha (Homo sapiens, UniProt P42336)
Sequence (P27986 whole entry): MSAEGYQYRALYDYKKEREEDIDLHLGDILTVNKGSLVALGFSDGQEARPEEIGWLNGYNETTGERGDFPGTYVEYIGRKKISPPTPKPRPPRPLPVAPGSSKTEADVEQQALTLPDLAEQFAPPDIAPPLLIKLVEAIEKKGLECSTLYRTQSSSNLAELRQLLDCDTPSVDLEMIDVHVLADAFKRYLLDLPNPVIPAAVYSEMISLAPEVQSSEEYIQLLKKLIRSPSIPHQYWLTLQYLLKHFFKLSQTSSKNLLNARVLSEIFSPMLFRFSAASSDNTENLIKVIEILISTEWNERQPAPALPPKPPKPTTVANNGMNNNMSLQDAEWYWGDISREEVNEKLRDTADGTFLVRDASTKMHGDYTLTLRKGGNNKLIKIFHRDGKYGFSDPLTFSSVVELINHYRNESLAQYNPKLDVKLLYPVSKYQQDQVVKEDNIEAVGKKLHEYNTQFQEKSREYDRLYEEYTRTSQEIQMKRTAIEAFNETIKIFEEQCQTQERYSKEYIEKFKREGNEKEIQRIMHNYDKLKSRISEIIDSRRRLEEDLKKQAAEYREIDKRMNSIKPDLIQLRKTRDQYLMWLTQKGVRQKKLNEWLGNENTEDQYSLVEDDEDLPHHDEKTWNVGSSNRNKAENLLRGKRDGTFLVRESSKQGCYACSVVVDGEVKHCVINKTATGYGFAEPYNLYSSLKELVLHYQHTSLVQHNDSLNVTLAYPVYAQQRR
Sequence (P42336 whole entry): as the sequence (P42336 whole entry E545K, canonical isoform) above, with K545E counted along it
Method summary: Inhibition of human PI3Kalpha (p110alpha/p85alpha) by ADP accumulation based HTRF assay
pIC50: −log10 of the molar value.
Quantity name: pIC50

CS(=O)(=O)C1CCN(Cc2cn3cc(-c4cnc(N)nc4)nc(N4CCOCC4)c3n2)CC1 7.54

(A) C[C@H]1CN(Cc2cn3cc(-c4cnc(N)nc4)nc(N4CCOCC4)c3n2)CCN1S(C)(=O)=O
(B) Cc1ncc(-c2nc(N3CCOCC3)c3nc(CN4CCN(S(C)(=O)=O)CC4)cn3c2Cl)cn1
(C) C[C@H](O)C(=O)N1CCN(Cc2cn3cc(-c4cnc(N)nc4)nc(N4CCOCC4)c3n2)CC1
(D) CS(=O)(=O)N1CCN(Cc2nc3c(N4CCOCC4)nc(-c4cnc(N)nc4)cn3c2Br)CC1
(E) CS(=O)(=O)N1CCN(Cc2cn3cc(-c4cncnc4)nc(N4CCOCC4)c3n2)CC1
Q) Highest pIC50 first, then in falling order down to the smallest. Put the labels in the order asked and list them.
A) D, A, B, C, E
(D: 9.15, A: 8.26, B: 7.67, C: 7.46, E: 6.91)

###

Tested target: Phosphatidylinositol 4,5-bisphosphate 3-kinase catalytic subunit alpha isoform (Homo sapiens, UniProt P42336, H1047R)
Sequence (P42336 whole entry H1047R, canonical isoform): as the sequence (P42336 whole entry E545K, canonical isoform) above, with K545E, H1047R counted along it
Method summary: Inhibition of human PI3Kalpha H1047R mutant by ADP accumulation based HTRF assay
Stated conditions: read-out: Ki(app)
Quantity name: pKi
Hey, just a heads up that pKi is the negative log base 10 of the concentration in molar.

Q) Which pKi value belongs to `CS(=O)(=O)N1CCN(Cc2cn3c(Cl)c(-c4cnc(N)nc4)nc(N4CCOCC4)c3n2)CC1` ?
A) 8.51

###

Tested target: Phosphatidylinositol 4,5-bisphosphate 3-kinase catalytic subunit alpha isoform (Homo sapiens)
Method summary: Inhibition of PI3Kalpha in human U2OS cells assessed as inhibition of AKT Ser 473 phosphorylation by Western blot
Type: cell-based
Quantity name: IC50 (nM)

CS(=O)(=O)N1CCN(Cc2nc3c(N4CCOCC4)nc(-c4cnc(N)nc4)cn3c2Br)CC1 8.1
CS(=O)(=O)N1CCN(Cc2cn3cc(-c4cnc(N)nc4C(F)(F)F)nc(N4CCOCC4)c3n2)CC1 10.2
CS(=O)(=O)N1CCN(Cc2cn3c(Cl)c(-c4cnc(N)nc4)nc(N4CCOCC4)c3n2)CC1 5.2
CCS(=O)(=O)N1CCN(Cc2cn3cc(-c4cnc(N)nc4)nc(N4CCOCC4)c3n2)CC1 98.5

(A) Cc1c(CN2CCN(S(C)(=O)=O)CC2)nc2c(N3CCOCC3)nc(-c3cnc(N)nc3)cn12
(B) C[C@H]1CN(Cc2cn3cc(-c4cnc(N)nc4)nc(N4CCOCC4)c3n2)CCN1S(C)(=O)=O
Q) Between A and B , whose recorded IC50 is greater? Write down the label of the entry you select.
A) B
(B: 120 nM, A: 15.4 nM)

(a) CN(C)CC(=O)N1CCN(Cc2cn3cc(-c4cnc(N)nc4)nc(N4CCOCC4)c3n2)CC1
(b) C[C@@H]1CN(S(C)(=O)=O)C[C@H](C)N1Cc1cn2cc(-c3cnc(N)nc3)nc(N3CCOCC3)c2n1
Q) Of the two listed items, which has the higher IC50? First: a Second: b Refer to your chosen item by its label in the answer.
A) a

###

Tested on: Serine/threonine-protein kinase B-raf (Homo sapiens), P15056 [V600E]
Sequence (P15056 whole entry V600E): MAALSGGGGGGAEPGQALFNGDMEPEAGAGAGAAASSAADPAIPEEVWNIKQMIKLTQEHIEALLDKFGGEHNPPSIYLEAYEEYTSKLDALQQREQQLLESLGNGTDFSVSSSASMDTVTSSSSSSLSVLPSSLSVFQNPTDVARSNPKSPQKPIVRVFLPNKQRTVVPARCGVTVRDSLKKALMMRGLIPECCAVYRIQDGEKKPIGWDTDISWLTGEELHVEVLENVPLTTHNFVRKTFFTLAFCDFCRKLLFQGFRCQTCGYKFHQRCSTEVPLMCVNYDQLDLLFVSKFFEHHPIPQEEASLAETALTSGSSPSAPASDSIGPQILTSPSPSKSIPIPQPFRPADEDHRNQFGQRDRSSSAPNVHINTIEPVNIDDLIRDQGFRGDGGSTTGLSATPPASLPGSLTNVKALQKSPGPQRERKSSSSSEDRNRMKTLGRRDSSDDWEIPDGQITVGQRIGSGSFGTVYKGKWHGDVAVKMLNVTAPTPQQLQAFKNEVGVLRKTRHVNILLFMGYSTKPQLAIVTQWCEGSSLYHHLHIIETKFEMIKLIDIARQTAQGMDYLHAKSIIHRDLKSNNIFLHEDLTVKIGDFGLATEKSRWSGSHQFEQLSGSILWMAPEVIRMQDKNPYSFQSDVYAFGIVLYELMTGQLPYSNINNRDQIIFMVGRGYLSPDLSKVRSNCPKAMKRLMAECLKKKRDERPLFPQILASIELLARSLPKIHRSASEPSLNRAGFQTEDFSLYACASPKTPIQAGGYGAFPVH
Method summary: Inhibition of BRAF V600E mutant at 1 uM
Quantity name: inhibition

CS(=O)(=O)N1CCN(Cc2cn3cc(-c4cnc(N)nc4)nc(N4CCOCC4)c3n2)CC1 < 30%
Cc1nc(N)ncc1-c1cn2cc(CN3CCN(S(C)(=O)=O)CC3)nc2c(N2CCOCC2)n1 < 30%
CS(=O)(=O)N1CCN(Cc2cn3c(Cl)c(-c4cnc(N)nc4)nc(N4CCOCC4)c3n2)CC1 < 30%
Cc1c(CN2CCN(S(C)(=O)=O)CC2)nc2c(N3CCOCC3)nc(-c3cnc(N)nc3)cn12 < 30%

Here's the next entry for you.
Q) Entry `CS(=O)(=O)N1CCN(Cc2nc3c(N4CCOCC4)nc(-c4cnc(N)nc4)cn3c2Br)CC1` : reported inhibition = ?
A) < 30%

###

Tested target: Serine/threonine-protein kinase 4 (Homo sapiens)
Method summary: Inhibition of MST1 at 5 uM
Item-by-item account of inhibition

# annotated cases, reported inhibition shown
Cc1c(CN2CCN(S(C)(=O)=O)CC2)nc2c(N3CCOCC3)nc(-c3cnc(N)nc3)cn12 < 30%
CS(=O)(=O)N1CCN(Cc2cn3cc(-c4cnc(N)nc4)nc(N4CCOCC4)c3n2)CC1 < 30%
CS(=O)(=O)N1CCN(Cc2nc3c(N4CCOCC4)nc(-c4cnc(N)nc4)cn3c2Br)CC1 < 30%
Cc1nc(N)ncc1-c1cn2cc(CN3CCN(S(C)(=O)=O)CC3)nc2c(N2CCOCC2)n1 < 30%

Now, please, on to the next compound.
Q) Param item = `CS(=O)(=O)N1CCN(Cc2cn3c(Cl)c(-c4cnc(N)nc4)nc(N4CCOCC4)c3n2)CC1` ; retrieve measured inhibition.
A) < 30%

###

Tested target: PI3-kinase p110-alpha/p85-alpha (Homo sapiens)
Method summary: Inhibition of human PI3Kalpha (p110alpha/p85alpha) by ADP accumulation based HTRF assay
Stated conditions: read-out: Ki(app)
Quantity name: Ki (nM)

Observe how each entry below is paired with its result.
CS(=O)(=O)N1CCN(Cc2cn3cc(-c4cnc(N)nc4C(F)(F)F)nc(N4CCOCC4)c3n2)CC1 7.4
CS(=O)(=O)N1CCN(Cc2cn3c(Cl)c(-c4cnc(N)nc4)nc(N4CCOCC4)c3n2)CC1 2.4

(P) Cc1c(CN2CCN(S(C)(=O)=O)CC2)nc2c(N3CCOCC3)nc(-c3cnc(N)nc3)cn12
(Q) C[C@H]1CN(Cc2cn3cc(-c4cnc(N)nc4)nc(N4CCOCC4)c3n2)CCN1S(C)(=O)=O
Q) Rank P against Q by their Ki values and give the higher one. // caller expects the label of the chosen entry
A) P

###

Tested target: PI3-kinase p110-delta/p85-alpha (Homo sapiens)
Sequence (P27986 whole entry): as the sequence (P27986 whole entry) above
Sequence (O00329 whole entry): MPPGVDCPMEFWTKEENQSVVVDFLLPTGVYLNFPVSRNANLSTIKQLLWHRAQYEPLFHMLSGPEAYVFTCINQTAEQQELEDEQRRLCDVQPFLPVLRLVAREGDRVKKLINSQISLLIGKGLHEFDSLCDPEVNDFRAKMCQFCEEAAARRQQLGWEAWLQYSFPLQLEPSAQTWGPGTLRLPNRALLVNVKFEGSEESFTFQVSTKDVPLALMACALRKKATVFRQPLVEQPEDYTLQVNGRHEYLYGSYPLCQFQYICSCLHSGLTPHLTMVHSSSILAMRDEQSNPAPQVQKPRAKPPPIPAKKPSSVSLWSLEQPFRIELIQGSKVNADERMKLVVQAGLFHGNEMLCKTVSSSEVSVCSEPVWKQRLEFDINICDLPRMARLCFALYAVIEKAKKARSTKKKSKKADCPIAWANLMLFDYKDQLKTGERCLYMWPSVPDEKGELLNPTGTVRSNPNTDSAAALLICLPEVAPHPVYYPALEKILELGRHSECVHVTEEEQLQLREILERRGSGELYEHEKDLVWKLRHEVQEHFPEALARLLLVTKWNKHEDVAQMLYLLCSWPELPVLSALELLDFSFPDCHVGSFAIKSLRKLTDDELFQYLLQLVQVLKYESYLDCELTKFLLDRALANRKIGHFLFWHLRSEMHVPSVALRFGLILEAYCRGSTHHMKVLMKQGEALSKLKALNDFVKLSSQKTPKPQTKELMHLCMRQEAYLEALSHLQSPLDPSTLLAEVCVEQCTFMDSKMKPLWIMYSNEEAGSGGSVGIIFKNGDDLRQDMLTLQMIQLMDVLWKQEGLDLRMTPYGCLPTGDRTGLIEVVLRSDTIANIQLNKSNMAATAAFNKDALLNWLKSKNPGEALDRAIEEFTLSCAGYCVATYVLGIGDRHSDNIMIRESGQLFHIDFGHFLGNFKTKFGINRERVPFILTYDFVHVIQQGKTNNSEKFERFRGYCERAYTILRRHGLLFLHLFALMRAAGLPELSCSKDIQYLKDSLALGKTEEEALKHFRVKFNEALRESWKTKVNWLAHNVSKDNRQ
Method summary: Inhibition of human PI3Kdelta (p110delta/p85alpha) by ADP accumulation based HTRF assay
Format: protein-complex assay
Stated conditions: read-out: Ki(app)
Quantity name: Ki (nM)

C[C@H]1CN(Cc2cn3cc(-c4cnc(N)nc4)nc(N4CCOCC4)c3n2)CCN1S(C)(=O)=O 14.7

(P) Cc1c(CN2CCN(S(C)(=O)=O)CC2)nc2c(N3CCOCC3)nc(-c3cnc(N)nc3)cn12
(Q) CS(=O)(=O)N1CCN(Cc2cn3cc(-c4cnc(N)nc4C(F)(F)F)nc(N4CCOCC4)c3n2)CC1
Q) Of the two listed items, which has the higher Ki? First: P Second: Q Please indicate the selected item by its label.
A) P
(P: 15.6 nM, Q: 5.06 nM)
